Each recorded value in this set is attributed to ChEMBL document CHEMBL1135823.

Reported Ki values are given for each entry in this list.
# tested system: Tyrosine-protein phosphatase non-receptor type 2 (Homo sapiens)
# Sequence (P17706 whole entry): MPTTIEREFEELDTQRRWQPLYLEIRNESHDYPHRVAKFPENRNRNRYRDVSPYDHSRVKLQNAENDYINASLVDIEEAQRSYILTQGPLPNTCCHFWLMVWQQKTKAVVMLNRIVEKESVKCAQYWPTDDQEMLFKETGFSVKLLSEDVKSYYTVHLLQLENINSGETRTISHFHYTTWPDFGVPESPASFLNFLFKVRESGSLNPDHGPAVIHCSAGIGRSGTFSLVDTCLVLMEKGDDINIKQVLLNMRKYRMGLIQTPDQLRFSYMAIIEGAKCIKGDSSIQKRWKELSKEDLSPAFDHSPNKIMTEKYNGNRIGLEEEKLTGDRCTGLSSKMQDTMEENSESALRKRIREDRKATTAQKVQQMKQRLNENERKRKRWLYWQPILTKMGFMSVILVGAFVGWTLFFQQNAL
# test protocol: Inhibition of T cell protein tyrosine phosphatase (TC-PTP) at pH 7.0
# Assay type: single protein
Numbers only; they are read as µM.

Solved entries:
O=C(O)C(=O)Nc1sc2c(c1C(=O)O)CCN(CCc1ccccc1OCc1ccccc1)C2 ... 17
O=C(O)C(=O)Nc1sc2c(c1C(=O)O)CCN(CCc1cccc3ccccc13)C2 ... 11

Ask: Which value of Ki has been reported for O=C(O)C(=O)Nc1sc2c(c1C(=O)O)CCN(CCc1ccncc1)C2 in the records?
Result: 13

Ask: Which value of Ki has been reported for O=C(O)C(=O)Nc1sc2c(c1C(=O)O)CCNC2 in the records?
Result: 9.4

Ask: Which value of Ki has been reported for O=C(O)C(=O)Nc1sc2c(c1C(=O)O)CCN(CCc1ccccn1)C2 in the records?
Result: 19

Ask: Which value of Ki has been reported for O=C(O)C(=O)Nc1sc2c(c1C(=O)O)CCN(Cc1ccccn1)C2 in the records?
Result: 48

Ask: Which value of Ki has been reported for O=C(O)C(=O)Nc1sc2c(c1C(=O)O)CCN(CCCc1ccccc1)C2 in the records?
Result: 12

Ask: Which value of Ki has been reported for CN1CCc2c(sc(NC(=O)C(=O)O)c2C(=O)O)C1 in the records?
Result: 22

Ask: Which value of Ki has been reported for O=C(O)C(=O)Nc1sc2c(c1C(=O)O)CCN(CCc1ccsc1)C2 in the records?
Result: 12

Ask: Which value of Ki has been reported for O=C(O)C(=O)Nc1sc2c(c1C(=O)O)CCN(CCc1ccc(OCc3ccccc3)cc1)C2 in the records?
Result: 10

Ask: Which value of Ki has been reported for O=C(O)C(=O)Nc1sc2c(c1C(=O)O)CCN(Cc1ccccc1)C2 in the records?
Result: 24

Ask: Which value of Ki has been reported for O=C(O)C(=O)Nc1sc2c(c1C(=O)O)CCN(CCc1ccc(-c3ccccc3)cc1)C2 in the records?
Result: 12

----------
# tested system: Receptor-type tyrosine-protein phosphatase alpha (Homo sapiens)
# Sequence (P18433 whole entry): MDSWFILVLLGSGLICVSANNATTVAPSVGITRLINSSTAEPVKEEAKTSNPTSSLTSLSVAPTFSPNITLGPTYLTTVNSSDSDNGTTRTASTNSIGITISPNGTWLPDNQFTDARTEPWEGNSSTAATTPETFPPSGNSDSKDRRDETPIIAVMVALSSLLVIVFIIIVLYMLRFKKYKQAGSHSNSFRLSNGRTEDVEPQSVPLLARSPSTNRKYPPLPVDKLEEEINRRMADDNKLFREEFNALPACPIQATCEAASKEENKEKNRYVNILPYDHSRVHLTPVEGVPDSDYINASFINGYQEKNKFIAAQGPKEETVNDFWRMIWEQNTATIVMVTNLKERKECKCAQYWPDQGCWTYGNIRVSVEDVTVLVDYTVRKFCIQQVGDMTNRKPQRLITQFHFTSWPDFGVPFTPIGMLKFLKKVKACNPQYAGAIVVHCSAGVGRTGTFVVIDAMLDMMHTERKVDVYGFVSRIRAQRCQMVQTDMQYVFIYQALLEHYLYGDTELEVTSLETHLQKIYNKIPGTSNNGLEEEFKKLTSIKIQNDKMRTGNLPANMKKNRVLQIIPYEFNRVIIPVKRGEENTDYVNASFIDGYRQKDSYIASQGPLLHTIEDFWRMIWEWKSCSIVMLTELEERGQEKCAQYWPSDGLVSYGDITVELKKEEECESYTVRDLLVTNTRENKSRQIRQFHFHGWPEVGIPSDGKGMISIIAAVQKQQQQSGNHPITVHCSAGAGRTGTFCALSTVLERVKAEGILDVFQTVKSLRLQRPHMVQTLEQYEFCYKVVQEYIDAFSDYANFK
# test protocol: Inhibitory effect against human protein-tyrosine phosphatase alpha (PTPalpha), using p-nitrophenyl phosphate substrate at pH 5.5.
# Condition met = Ki below 200 µM (exclusive); Condition not met = Ki at/above 200 µM

Observe how each entry below is paired with its result.
O=C(O)C(=O)Nc1cc(-c2ccc(OCc3ccccc3)cc2)sc1C(=O)O ... Condition met
O=C(O)C(=O)Nc1sc2c(c1C(=O)O)CCS(=O)(=O)C2 ... Condition not met
O=C(O)C(=O)Nc1sc2c(c1C(=O)O)CCCCC2 ... Condition not met

Ask: Criterion: Ki strictly below 200 µM. Is it met by O=C(O)C(=O)Nc1ccc(I)cc1C(=O)O ?
Result: Condition met

Ask: Criterion: Ki strictly below 200 µM. Is it met by O=C(O)C(=O)Nc1sc2c(c1C(=O)O)CCC2 ?
Result: Condition not met

Ask: Criterion: Ki strictly below 200 µM. Is it met by O=C(O)C(=O)Nc1sc2c(c1C(=O)O)CC[S+]([O-])C2 (stereo not given) ?
Result: Condition not met

Ask: Criterion: Ki strictly below 200 µM. Is it met by O=C(O)C(=O)Nc1cc(-c2ccc(Oc3ccccc3)cc2)sc1C(=O)O ?
Result: Condition met

Ask: Criterion: Ki strictly below 200 µM. Is it met by O=C(O)C(=O)Nc1sc2c(c1C(=O)O)CCSC2 ?
Result: Condition met
